Assign protein stability index to each entry below.
B1: ETS1 (parent)
chain: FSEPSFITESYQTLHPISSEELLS

- Variants of: B1
- assay.remarks: protein stability index of a GFP-peptide fusion (GPS, HEK-293T) (PSI 1-6); higher = more stable;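 note: lentivirally expressed fusions sorted by FACS into six bins by GFP to DsRed ratio, PSI derived from sequencing read proportions per bin multiplied by bin number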
- test.parameters: c terminus: a fixed tail appended

protein stability index in this record for FSEPSFITESYMTLHPISSEELLS [Q12M] : 1.95

Record summary for FSEPSFITESYQTLHPISMEELLS [S19M] : reported protein stability index = 2.19

// sample FSEPSFITESYLTLHPISSEELLS [Q12L] , its protein stability index was 2.45

Form field protein stability index, entry FSEPSFITESYQTLMPISSEELLS [H15M] : 1.96

// sample FSEPSFMTESYQTLHPISSEELLS [I7M] , its protein stability index was 2.31

Record FSELSFITESYQTLHPISSEELLS [P4L] , field protein stability index: 2.03

Entry FSEPLFITESYQTLHPISSEELLS [S5L] — recorded protein stability index = 1.99

The recorded protein stability index for FSEPSFITESYQTLHPISSENLLS [E21N] is 1.85

# variant FSEPSFITESRQTLHPISSEELLS [Y11R] ; its protein stability index = 1.82

Measured protein stability index of FSDPSFITESYQTLHPISSEELLS [E3D] : 1.74

// protein stability index value for FSEPSFITESYQTLHQISSEELLS [P16Q] : 2.13

Entry FSEPSFITESYQTLHPQSSEELLS [I17Q] — recorded protein stability index = 2.31

Looking up FSEPSCITESYQTLHPISSEELLS [F6C] , I see its protein stability index listed as 3.36

The value of protein stability index measured for the variant FVEPSFITESYQTLHPISSEELLS [S2V] turned out to be 2.42

// protein stability index lookup, variant = HSEPSFITESYQTLHPISSEELLS [F1H] , result: 4.1

The variant listed as FSEPSFITESYQTLHRISSEELLS [P16R] has a reported protein stability index of 1.69

get_value(item= FSEPSFITESYQTLHPISSERLLS [E21R] , readout=protein stability index) returns 1.96

Item: FSEPSFIMESYQTLHPISSEELLS [T8M] | protein stability index: 1.78

Field protein stability index (entry FSEPSFITESYQTLHPISSEELLA [S24A] ) reads 2.02

# protein stability index (variant: FSEPSFITEYYQTLHPISSEELLS [S10Y] ) is 1.74

The value of protein stability index measured for the variant FSEPSPITESYQTLHPISSEELLS [F6P] turned out to be 4.26

Summary for this variant, FSEPSFIIESYQTLHPISSEELLS [T8I] : protein stability index is 1.98

Summary for this variant, FSEPSFITESYQTLHPISSEELMS [L23M] : protein stability index is 2.03

Input FSEPSFITESYQTLHCISSEELLS [P16C] . Output protein stability index: 2.07

Please fill in: protein stability index reported for FSEPSFITESYQTLHPISSEMLLS [E21M] = 2.1

Record FSEPSFITESYQTLVPISSEELLS [H15V] . Reported protein stability index: 2.49

protein stability index recorded for this variant, YSEPSFITESYQTLHPISSEELLS [F1Y] , is 2.1

The variant listed as FSEPSFVTESYQTLHPISSEELLS [I7V] has a reported protein stability index of 2.21

FPEPSFITESYQTLHPISSEELLS [S2P] has a reported protein stability index of 1.95

So, FSEASFITESYQTLHPISSEELLS [P4A] ? Its protein stability index was 2.21

Looking up FSEHSFITESYQTLHPISSEELLS [P4H] , I see its protein stability index listed as 2.54

# variant SSEPSFITESYQTLHPISSEELLS [F1S] ; its protein stability index = 4.07

For reference, reported protein stability index for NSEPSFITESYQTLHPISSEELLS [F1N] stands at 4.24

Looking up FSEPSFITESYQTLHPISSETLLS [E21T] , I see its protein stability index listed as 2

Recorded protein stability index (variant FSEPSFITESYRTLHPISSEELLS [Q12R] ): 1.92

For reference, reported protein stability index for FSEVSFITESYQTLHPISSEELLS [P4V] stands at 1.49

Lab book: protein stability index of FSEPSFITESYQTLHPIPSEELLS [S18P] noted as 2.08

Recorded result, FSEPSFITESYQTLHPISSEELLT [S24T] , protein stability index: 1.99

Measured protein stability index of FSEPSFITESYQTLPPISSEELLS [H15P] : 2.27

FSEPSHITESYQTLHPISSEELLS [F6H] yielded protein stability index of 4.14

Documented protein stability index of FSEPSFITECYQTLHPISSEELLS [S10C] : 1.53

Quick note, protein stability index for FSEPSFITESYQTFHPISSEELLS [L14F] landed at 1.74

Recorded result, FSSPSFITESYQTLHPISSEELLS [E3S] , protein stability index: 2.21

The variant listed as FSEPSFETESYQTLHPISSEELLS [I7E] has a reported protein stability index of 4.03

Reported protein stability index for FSEPSFITESYQTHHPISSEELLS [L14H] was 2.35

Lookup result for FSEPSGITESYQTLHPISSEELLS [F6G] ; measured protein stability index: 3.85

According to the records, this variant FSEPSFITDSYQTLHPISSEELLS [E9D] displays protein stability index of 1.88

Record summary for FLEPSFITESYQTLHPISSEELLS [S2L] : reported protein stability index = 1.49

Value of measured protein stability index for the entry FSEPSFITESYQTDHPISSEELLS [L14D] : 2.44

// field: protein stability index; key: FSEPSFITESYQTLHPISSEELLD [S24D] ; value = 2.15

Query FSEPSFITESYQTLHPNSSEELLS [I17N] yields protein stability index of 2.34

Data point: FSEPSFIVESYQTLHPISSEELLS [T8V] ; protein stability index = 1.36

Entry FSEPYFITESYQTLHPISSEELLS [S5Y] ; protein stability index = 1.8

Reported protein stability index for FFEPSFITESYQTLHPISSEELLS [S2F] was 2.26

Consider FSEPSFITESYQTLHPISEEELLS [S19E] . Its measured protein stability index is 2.46

# protein stability index of FSEPSFQTESYQTLHPISSEELLS [I7Q] = 3.83

# variant FSEPSFITESYQPLHPISSEELLS [T13P] ; its protein stability index = 2.11

// protein stability index lookup, variant = FSEPSFNTESYQTLHPISSEELLS [I7N] , result: 4.24

Looking up FSEPSFITESYQRLHPISSEELLS [T13R] , I found its protein stability index recorded as 1.61

Query FSEPSFITESEQTLHPISSEELLS [Y11E] yields protein stability index of 2.95

Item: FSEDSFITESYQTLHPISSEELLS [P4D] | protein stability index: 3.65

For record FSEPSFITESWQTLHPISSEELLS [Y11W] the listed protein stability index is 1.34

protein stability index reading for FSEPSFITESYQTLHPISSEELGS [L23G] : 1.98

Item: FSEPSFIHESYQTLHPISSEELLS [T8H] | protein stability index: 2.04

Memo: FSAPSFITESYQTLHPISSEELLS [E3A] , reported protein stability index: 2.37

Measured protein stability index, FSEPSFATESYQTLHPISSEELLS [I7A] : 1.59

The value of protein stability index measured for the variant FSEPSFIDESYQTLHPISSEELLS [T8D] turned out to be 3.47

Recorded result, FSEPSFITESYQTLHPISSEELLV [S24V] , protein stability index: 1.62

Documented protein stability index of FSEPSFITESYQTLHPISSEELWS [L23W] : 1.81

Just so you know, measured protein stability index for FSEPSFITESYQTLHPGSSEELLS [I17G] came out at 1.81

response.value for FSEPSFITEEYQTLHPISSEELLS [S10E] (field: protein stability index) = 3

Reported protein stability index for FSETSFITESYQTLHPISSEELLS [P4T] was 2.65

variant FSEPSKITESYQTLHPISSEELLS [F6K] , protein stability index observed: 3.58

The reported value for FSEPSFITESYQTLCPISSEELLS [H15C] in terms of protein stability index is 2.17

Kindly note the recorded protein stability index for FSEPSFITESYQTLHPISSEELLI [S24I] , which is 1.85

Recorded result, FSEPSFITESYQTEHPISSEELLS [L14E] , protein stability index: 2.33

FSEPSFITESYQTLHMISSEELLS [P16M] has a reported protein stability index of 1.47

Reported protein stability index of FSEPSFITESYQTLHPIKSEELLS [S18K] : 1.49

In plain terms, FSEQSFITESYQTLHPISSEELLS [P4Q] has a documented protein stability index of 2.81

protein stability index reported for this variant FSTPSFITESYQTLHPISSEELLS [E3T] : 2.35

For record FSEPSFITQSYQTLHPISSEELLS [E9Q] the listed protein stability index is 2.02

Value of measured protein stability index for the entry FSEMSFITESYQTLHPISSEELLS [P4M] : 2.19

// protein stability index lookup, variant = FIEPSFITESYQTLHPISSEELLS [S2I] , result: 3.17

The variant identified as RSEPSFITESYQTLHPISSEELLS [F1R] registered its protein stability index at 4.2

Note to self: protein stability index recorded for FSEPSFITESYQTLAPISSEELLS [H15A] was 2.27

For reference, reported protein stability index for FSEPSFITESYNTLHPISSEELLS [Q12N] stands at 2.26

Recorded result, FSEPSFITESGQTLHPISSEELLS [Y11G] , protein stability index: 2.57
